Where these numbers come from: patent US12258328B2

assayed target: EGFR L858R/T790M/C797S (Homo sapiens, UniProt P00533, C797S/L858R/T790M)
Sequence (P00533 25-1210 T790M/C797S/L858R): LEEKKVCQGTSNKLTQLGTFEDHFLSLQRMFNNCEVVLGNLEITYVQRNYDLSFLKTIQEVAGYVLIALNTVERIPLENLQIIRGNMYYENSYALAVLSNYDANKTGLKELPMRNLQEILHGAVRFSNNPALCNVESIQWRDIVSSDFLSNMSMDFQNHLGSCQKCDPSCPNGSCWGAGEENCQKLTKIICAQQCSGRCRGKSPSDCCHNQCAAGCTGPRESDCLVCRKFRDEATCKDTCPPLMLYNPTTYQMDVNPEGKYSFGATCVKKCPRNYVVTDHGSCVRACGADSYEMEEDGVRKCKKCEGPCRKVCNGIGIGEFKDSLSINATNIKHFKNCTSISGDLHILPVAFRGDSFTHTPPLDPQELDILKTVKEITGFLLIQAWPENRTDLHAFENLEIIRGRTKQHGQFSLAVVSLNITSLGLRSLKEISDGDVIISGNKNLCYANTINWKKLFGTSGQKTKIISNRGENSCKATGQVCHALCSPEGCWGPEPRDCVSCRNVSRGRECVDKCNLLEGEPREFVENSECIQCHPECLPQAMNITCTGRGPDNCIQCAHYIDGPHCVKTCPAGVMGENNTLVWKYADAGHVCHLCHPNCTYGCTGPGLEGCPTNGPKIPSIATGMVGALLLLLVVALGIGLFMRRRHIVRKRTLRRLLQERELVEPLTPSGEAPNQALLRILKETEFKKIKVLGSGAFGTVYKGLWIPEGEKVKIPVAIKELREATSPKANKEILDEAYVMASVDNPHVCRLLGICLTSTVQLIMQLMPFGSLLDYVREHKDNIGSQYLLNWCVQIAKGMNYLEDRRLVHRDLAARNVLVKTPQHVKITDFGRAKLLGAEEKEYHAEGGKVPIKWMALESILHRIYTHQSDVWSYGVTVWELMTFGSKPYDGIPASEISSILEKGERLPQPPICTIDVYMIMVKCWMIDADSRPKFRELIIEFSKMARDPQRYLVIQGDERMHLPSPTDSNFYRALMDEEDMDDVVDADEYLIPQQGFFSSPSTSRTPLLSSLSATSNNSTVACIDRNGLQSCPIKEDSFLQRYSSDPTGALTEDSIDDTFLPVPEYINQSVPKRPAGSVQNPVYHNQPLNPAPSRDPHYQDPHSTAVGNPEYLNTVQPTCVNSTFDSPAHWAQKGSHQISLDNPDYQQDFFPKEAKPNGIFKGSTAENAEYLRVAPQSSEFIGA
assay protocol: Biochemical EGFR kinase assay (Lance Ultra TR-FRET), triple mutant L858R/T790M/C797S
condition notes: IC50 L858R/T790M/C797S, 100 μM ATP
pIC50: −log10 of the molar value.
measured metric: pIC50

CN(C)C[C@H]1CC[C@@H](Nc2cc(Nc3ccnc(-c4cnn(S(=O)(=O)C5CC5)c4)n3)ncc2-c2cccc(CC(F)(F)F)n2)CC1 [Example 248] ... 9.52
CN(C)C[C@H]1CC[C@@H](Nc2cc(Nc3ccnc(-c4cnn(S(=O)(=O)C5CC5)c4)n3)ncc2-c2ccc(CC(F)(F)F)cn2)CC1 [Example 221] ... 9.30

a = O=S(=O)(C1CC1)n1cc(-c2nccc(Nc3cc(N[C@H]4CC[C@@H](CO)CC4)c(-c4cccc(CC(F)(F)F)n4)cn3)n2)cn1 [Example 246]
b = CN(C)CCOc1ccc(-c2cnc(Nc3ccnc(-c4cnn(S(=O)(=O)C5CC5)c4)n3)cc2N[C@H]2CC[C@@H](CO)CC2)nc1 [Example 209]
c = O=S(=O)(C1CC1)n1cc(-c2nccc(Nc3cc(N[C@H]4CCC[C@H](CO)C4)c(-c4ccc(CC(F)(F)F)cn4)cn3)n2)cn1 [Example 222]
d = CC(C)(O)[C@H]1CC[C@@H](Nc2cc(Nc3ccnc(-c4cnn(S(=O)(=O)C5CC5)c4)n3)ncc2-c2ccc(OC(F)(F)F)cn2)CC1 [Example 196]
Arrange these compounds by their pIC50, starting with the largest number. Would you mind listing the labels in the order asked for?
b, a, c, d
